Where do the numbers come from? From patent US20220071961A1.

Assay: Effect of different intervals between administration and a meal on pharmacokinetic parameters (three-period crossover, single oral dose)
Assay type: in vivo, human
Details: male, human, plasma, po, 7.5 mg, single oral 7.5 mg; Group A, without a breakfast after administration; N = 15; read-out: Vz/F Geomean (% CVb)
Procedure: Embodiment 1: Study on an effect of different intervals between the administration and a meal on pharmacokinetic parameters of a compound represented by Formula I […] The high-fat meal: calories: 800 to 1,000 kcal, composed of 150 kcal of protein, 250 kcal of carbohydrates and 500 to 600 kcal of fats, wherein about 50% of the calories come from the fats. […] An effect of food on the medicine was analyzed by sampling blood at fixed time points before and after administration and measuring vital signs. […]
measure_name: Vd/F (L)

* CC1=NN(c2ccc3c(c2)CCCC3)C(=O)/C1=N\Nc1cccc(-c2ccc(C(=O)O)o2)c1O [compound represented by Formula I] | 308
